Attribution: patent US8895585B2

Biological target: glutathione S-transferase (GST)-fused full-length human Syk protein (Homo sapiens)
Construct: (GST)-fused full-length human Syk protein; GST (glutathione S-transferase); purchased Carna Biosciences
Assay: Syk enzyme assay
Type: biochemical
Conditions: Syk enzyme assay, Test Example 1; read-out: IC50 of Syk-inhibitory activity
pIC50: −log10 of the molar value.
parameter: pIC50

# count of solved cases: 3
| molecule | pIC50 |
| --- | --- |
| NCCNCCNc1nc(Nc2ccnc(-n3nccn3)c2)c(C(N)=O)cc1F | 6.00 to 7.00 |
| CCn1ncc2cc(Nc3nc(N[C@H](C4CC4)[C@H](C)N)c(F)cc3C(N)=O)ccc21 | > 8.00 |
| NC(=O)c1cc(F)c(N[C@@H]2CCCC[C@@H]2N)nc1Nc1ccc2nn(CC3CC3)cc2c1 (relative stereo) | > 8.00 |

# pIC50 lookup, item COc1ccc(-c2cncc(Nc3nc(NC4CCCCC4N)c(F)cc3C(N)=O)c2)cc1OC (stereo not drawn)
7.30 to 8.00

# pIC50 lookup, item NC(=O)c1cc(F)c(N[C@@H]2CCCC[C@@H]2N)nc1Nc1cnc2c(F)cccc2c1 (relative stereo)
7.30 to 8.00

# pIC50 lookup, item CC(C)(N)CNc1nc(Nc2ccc3ncccc3c2)c(C(N)=O)cc1F
7.30 to 8.00

# pIC50 lookup, item Cc1ccccc1-c1cncc(Nc2nc(N[C@@H]3CCCC[C@@H]3N)c(F)cc2C(N)=O)c1 (relative stereo)
7.30 to 8.00

# pIC50 lookup, item NC(=O)c1cc(F)c(NC2CCCCC2N)nc1Nc1cc(N2CCOCC2)ncc1F (stereo not drawn)
6.00 to 7.00

# pIC50 lookup, item COCCn1nc(C)c2ccc(Nc3nc(N[C@H](CC4CC4)[C@H](C)N)c(F)cc3C(N)=O)cc21
> 8.00

# pIC50 lookup, item CCn1nc(F)c2cc(Nc3nc(N[C@H](CC4CC4)[C@H](C)N)c(F)cc3C(N)=O)ccc21
> 8.00

# pIC50 lookup, item NC(=O)c1cc(F)c(N[C@@H]2CCCC[C@@H]2N)nc1Nc1cncc(-c2cccnc2)c1
7.30 to 8.00

# pIC50 lookup, item CCCOc1cnc2cc(Nc3nc(N[C@@H]4CCCC[C@@H]4N)c(F)cc3C(N)=O)ccc2n1 (relative stereo)
7.30 to 8.00

# pIC50 lookup, item CC[C@@H](Nc1nc(Nc2ccnc(-c3ccco3)c2)c(C(N)=O)cc1F)[C@H](C)N
> 8.00

====

Reported pIC50 values follow for various compounds
Biological target: glutathione S-transferase (GST)-fused full-length human Syk protein (Homo sapiens, UniProt P43405)
Construct: (GST)-fused full-length human Syk protein; GST (glutathione S-transferase); purchased Carna Biosciences
Assay: Syk enzyme assay
Type: biochemical
Conditions: Syk enzyme assay, Test Example 1; read-out: IC50 of Syk-inhibitory activity
pIC50: −log10 of the molar value.

# count of solved cases: 2
| compound | result |
| --- | --- |
| NC(=O)c1cc(F)c(N[C@@H]2CCCC[C@@H]2N)nc1Nc1cncc(C(F)(F)F)c1 (relative stereo) [Example 004-098] | 7.30 to 8.00 |
| Cc1cc(Nc2nc(N[C@H](C3CC3)[C@H](C)N)c(F)cc2C(N)=O)cnc1C [Example 006-434] | 7.00 to 7.30 |

# pIC50 lookup, item NC(=O)c1cc(F)c(N[C@@H]2CCCC[C@@H]2N)nc1Nc1cnc2c(c1)OCO2 [Example 004-160]
7.30 to 8.00
